The reported numbers originate from ChEMBL document CHEMBL1641390.

# Test system: Bel-7402
# Assay Summary: Cytotoxicity against human Bel7402 cells after 72 hrs by sulforhodamine B assay
# Assay type: functional, cell-based
# Measurement Conditions: Bel-7402, 72 h
pIC50: −log10 of the molar value.
Test Readout: pIC50

1. C=C1C(=O)[C@]23C[C@H]1CC[C@H]2[C@@]12CO[C@]3(O)[C@@H](O)[C@@H]1[C@](C)(COC(C)=O)CC[C@@H]2OC(C)=O [EFFUSANIN D] = < 5.00
2. COc1cccc2c1C(=O)c1c(O)c3c(c(O)c1C2=O)C[C@@](O)(C(=O)CO)C[C@@H]3O[C@H]1C[C@H](N)[C@H](O)[C@H](C)O1 [DOXORUBICIN] = 7.17
3. C=C(CO)[C@@H]1C[C@@H](OC(C)=O)[C@@H]2[C@@H](C1)C(=O)[C@@H](O)[C@@H]1C(C)(C)CCC[C@@]21C [ERIOCASIN E] = < 5.00
4. C=C1C(O)[C@]23C[C@H]1CC[C@H]2[C@@]1(C)[C@H]([C@H](OC(C)=O)C3=O)[C@](C)(COC(C)=O)CC[C@@H]1O (stereo not given in full) [MAOESIN E] = < 5.00
5. C=C1C(OC(C)=O)[C@]23C[C@H]1CC[C@H]2[C@@]1(CC[C@H](OC(C)=O)[C@@](C)(COC(C)=O)[C@H]1C=O)COC3=O (stereo not given in full) [MAOESIN F] = < 5.00

---

Listing of recorded pIC50 by entry.
# System: Bel-7402
# Assay Summary: Cytotoxicity against human Bel7402 cells after 72 hrs by sulforhodamine B assay
# Format: functional, cell-based
# Measurement Conditions: Bel-7402, 72 h
pIC50: −log10 of the molar value.
Test Readout: pIC50

1) C=C(C=O)[C@@H]1CCC2=C(C1)C(=O)[C@@H](O)[C@@H]1C(C)(C)[C@H](O)CC[C@@]21C = < 5.00
2) CC(=O)OC[C@]1(C)C(OC(C)=O)CC[C@]23CO[C@@](O)(C[C@@H]21)[C@]12C(=O)C4(CCC45C(=O)[C@]46[C@H](O)[C@H]5CC[C@H]4[C@]45CCC(OC(C)=O)[C@@](C)(COC(C)=O)[C@H]4C[C@]6(O)OC5)[C@H](CC[C@@H]31)[C@H]2O (stereo partly drawn) = 5.22
3) C=C(C=O)[C@@H]1CC[C@@H]2[C@@H](C1)C(=O)[C@@H](O)[C@@H]1C(C)(C)[C@H](O)CC[C@@]21C = < 5.00
4) C=C1C(=O)[C@@]23C[C@H]1C[C@H]1OC(O)[C@@H]4[C@](C)(COC(C)=O)[C@H](OC(C)=O)C[C@@H](OC2=O)[C@@]4(CO)[C@H]13 (stereo partly drawn) = < 5.00
5) C=C1C(=O)[C@@]23[C@@H]4C[C@@H]5C(C)(C)CC[C@H](O)[C@@]5(C(OC)O4)[C@@H]2CC[C@@H]1[C@H]3O (stereo partly drawn) = < 5.00
6) C=C1C(=O)[C@]23C[C@H]1CC[C@H]2[C@]12CCC[C@@](C)(COC(C)=O)[C@H]1[C@H](O)[C@]3(O)OC2 = 5.54
7) C=C1C(=O)[C@@]23[C@H](O)C[C@@H]4C(C)(C)CC[C@H](O)[C@@]4(COC(C)=O)[C@@H]2CC[C@@H]1[C@H]3O = < 5.00
8) C=C(C=O)[C@@H]1CC[C@@H]2[C@@H](C1)C(=O)[C@@H](O)[C@@H]1[C@](C)(COC(C)=O)[C@@H](O)CC[C@]12C = < 5.00
9) C=C1C(=O)[C@]23C[C@H]1CC[C@H]2[C@@]12CO[C@@]3(O)[C@@H](O)[C@@H]1C(C)(C)CC[C@@H]2OC(C)=O = 5.14
10) C=C1C(=O)[C@]23C[C@H]1C=C[C@H]2[C@]12CC[C@H](OC(C)=O)[C@@](C)(COC(C)=O)[C@H]1[C@H](O)[C@]3(O)OC2 = < 5.00
11) C=C1C(=O)[C@]23C[C@H]1CC[C@H]2[C@]12CC[C@H](OC(C)=O)[C@@](C)(COC(C)=O)[C@H]1[C@H](O)[C@]3(O)OC2 = < 5.00
12) C=C(C=O)[C@@H]1CC[C@@H]2[C@@H](C1)C(=O)[C@@H](O)[C@@H]1[C@](C)(COC(C)=O)[C@@H](OC(C)=O)C[C@H](O)[C@@]21C = < 5.00
13) C=C1[C@H]2C[C@@H](O)C3(C(=O)C[C@@H]4[C@](C)(COC(C)=O)CCC[C@@]4(C)[C@@H]3C2)[C@@H]1O = < 5.00
